test system: A2780 Human Carcinoma Cells; assay: Glucose displacement assay (ATP measurement, CellTiter-Glo); format: cell-based; conditions: ATP measurement in A2780 cells, 0.5 μM rotenone, 10 mM glucose, read-out: IC50 [μM] at 10 mM glucose
So basically, if IC50 comes in under 8 µM it's 1.0, and if it's 8 µM or more it's 0.0.

MOLECULE	CLASS
CO[C@H]1O[C@H](CO)[C@@H](O)[C@H](O)[C@H]1OC(=O)c1cc(Cl)c(OCc2cccc(CNC(=O)CCC(=O)OC(C)(C)C)c2)c(Cl)c1C	0.0
CO[C@H]1O[C@H](CO)[C@@H](O)[C@H](O)[C@H]1OC(=O)c1cc(Cl)c(OCc2cccc(NCCCC(=O)OC(C)(C)C)c2)c(Cl)c1C	1.0
CO[C@H]1O[C@H](CO)[C@@H](O)[C@H](O)[C@H]1OC(=O)c1cc(Cl)c(OCc2cccc(CNC(=O)CCCC(=O)OC(C)(C)C)c2)c(Cl)c1C	1.0
C#CCCCCCCCn1c(COc2c(Cl)cc(C(=O)O[C@H]3[C@@H](OC)O[C@H](CO)[C@@H](O)[C@@H]3O)c(C)c2Cl)nc2ccccc21	1.0
C#CCCC(=O)Nc1cccc(COc2c(Cl)cc(C(=O)O[C@H]3[C@@H](OC)O[C@H](CO)[C@@H](O)[C@@H]3O)c(C)c2Cl)c1	0.0
CO[C@H]1O[C@H](CO)[C@@H](O)[C@H](O)[C@H]1OC(=O)c1cc(Cl)c(OCc2cccc(NC(=O)CCC(=O)OC(C)(C)C)c2)c(Cl)c1C	1.0
COC(=O)[C@H](CCCCNC(=O)CCCCCCCCC(=O)Nc1cccc(COc2cc(OC)c(C(=O)N[C@H]3[C@@H](OC)O[C@H](CO)[C@@H](O)[C@@H]3O)cc2Cl)c1)NC(=O)OC(C)(C)C	1.0
COc1cc(OCc2cccc(NC(=O)CCCCCCC(=O)OC(C)(C)C)c2)c(Cl)cc1C(=O)O[C@H]1[C@@H](OC)O[C@H](CO)[C@@H](O)[C@@H]1O	1.0
COc1cc(OCc2cccc(CNC(=O)CCCC(=O)OC(C)(C)C)c2)c(Cl)cc1C(=O)O[C@H]1[C@@H](OC)O[C@H](CO)[C@@H](O)[C@@H]1O	0.0
